Test system: HOP-92 NSCLC
assayOverview: NCI-60 one-dose screen, 48 h
conditionNotes: 10 µM unless noted
Experimental: Growth inhibition of the HOP-92 human Non-Small Cell Lung tumor cell line is measured as a screen for anti-cancer activity. Cells are grown in 96 well plates and exposed to the test compound for 48 hours. Compounds are tested at a single concentration, which is 10^-5 M for most compounds. The reported endpoint is percent growth (GI% or GIPRCNT), where numbers from 0 - 100% represent growth inhibition, and numbers from -100% - 0 represent cell death. […]
Compounds without any hit were thinned out: in the full panel of roughly 83,000, 20% have a hit. Calls of active or inactive are those of the source. The calls were made as follows: active = growth percent below 10; inactive = the rest.
Lab note: assign the record to one of YES = active, NO = inactive

O=[N+]([O-])CC(c1ccccc1F)c1c[nH]c2ccccc12 (centres undefined): NO
NC(=NCCCOc1ccc(F)cc1)Nc1ccc(Cl)cc1: NO
O=S(=O)(NCCNc1nccc(-c2c(-c3cccc(O)c3)nc3occn23)n1)c1ccc(Cl)cc1: NO
COC(=O)C(CC=O)C(=O)C(=O)Nc1cccc(C(F)(F)F)c1 (centres undefined): NO

[Q] Call for entry `O=c1c2c(c(=O)n1O)c1c3ccc[nH]c3nc1c1nc3[nH]cccc3c12` :
[A] NO

[Q] Call for entry NC(=NCc1ccccc1)C(N=Nc1ccccc1)C(=O)NCc1ccccc1 (centres undefined) :
[A] NO

[Q] Call for entry `C=C1C(=O)O[C@H]2[C@H]1CC/C(CNC(=O)/C=C/c1cccc(OC)c1)=C\CC[C@@]1(C)O[C@@H]21` :
[A] YES

[Q] Call for entry `COc1cccc(-c2nc3occn3c2-c2ccnc(NCCNS(=O)(=O)c3cccc4ccccc34)n2)c1` :
[A] NO

[Q] Call for entry `C#CCNC(=O)[C@]1(C)CC[C@]2(C)CC[C@@H]3C(=CC[C@H]4[C@@]3(C)CC[C@H]3C(C)(C)C(=O)CC[C@]43C)[C@@H]2C1` :
[A] NO

###

Test system: 786-0 renal
assayOverview: NCI-60 one-dose screen, 48 h
conditionNotes: 10 µM unless noted
This is part of a sample that, as a whole, favours compounds with a hit. Of some 83,000 tested, about 20% had one in any assay. The source made the active and inactive calls. The calls were made as follows: active = growth percent below 10; inactive = the rest.
Lab note: assign the record to one of active, inactive

The examples below pair each entry with its known result.
CCCCCCNC(=O)Oc1ccc(/C(=C(\C)c2ccccc2)c2ccc(OCCN3CCCCC3)cc2)cc1: inactive
COc1cc(NC(=O)CSc2nc3ccc(C)cc3c(=O)n2Cc2ccccc2)cc(OC)c1OC: inactive
O=C1C=CC(=O)N1c1cccc(Cl)c1: inactive
C=C(C)[C@@H]1CC[C@]2(C(=O)N3CCN(C)CC3)CC[C@]3(C)[C@H](CC[C@@H]4[C@@]5(C)C/C(=C/c6cccnc6)C(=O)C(C)(C)[C@@H]5CC[C@]43C)[C@@H]12: inactive
CCCCCCCCO/N=C\c1c2c(O)c3c(O)c(C)c4c(c3c1O)C(=O)C(C)(O/C=C\C(OC)C(C)C(OC(C)=O)C(C)C(O)C(C)C(O)C(C)/C=C\C=C(\C)C(=O)N2)O4 (configuration not stated): inactive

[Q] Call for entry `O=S(=O)(NCCNc1nccc(-c2c(-c3cccc(O)c3)nc3occn23)n1)c1cccc(F)c1` :
[A] inactive

###

Each item that follows carries a reported growth.
Test system: UACC-257 melanoma
assayOverview: NCI-60 one-dose screen, 48 h (100 = growth as untreated, 0 = no growth, -100 = all killed)
conditionNotes: 10 µM unless noted
About 83,000 compounds went through this panel and 20% of them were active in at least one assay; those are over-represented in the sample as a whole.
Give the quantity in %, number only.

O=C1c2cccc3c(-c4ccc5c(c4)ncn5C4CCCCC4)ccc(c23)C(=O)N1CCO: 94.5
CCCCN1C=CCN(CCCC)C1: 10.8
OC(c1cccc(C(F)(F)F)c1)c1cnccc1NC1CCCCC1 (stereo not given): 87
C=C1C(=O)O[C@H]2[C@H]1CC/C(CNC(=O)c1cccc3ccccc13)=C\CC[C@@]1(C)O[C@@H]21: 66.2
Oc1ccc(C(c2ccc(O)cc2)c2ccc(Br)cn2)cc1: 91.3
CC(=O)[C@@H]1CC[C@]2(C(N)=O)CC[C@]3(C)[C@H](CC[C@@H]4[C@@]5(C)CCCNC(C)(C)[C@@H]5CC[C@]43C)[C@@H]12: 94.4

[Q] What growth value was documented for this compound, COC(=O)C1=C(C(=O)ON)C2C=CC1(C(Cc1ccccc1)Nc1ccccc1)O2 (stereo not given) ?
[A] 87.8

[Q] What growth value was documented for this compound, `O=C(CSc1nc2sc3c(c2c(=O)n1-c1ccc(Cl)cc1)CCCC3)Nc1nc(-c2cccc(Br)c2)cs1` ?
[A] 99.3

[Q] What growth value was documented for this compound, `O=C(CCN1CCCC1)c1ccc([N+](=O)[O-])cc1` ?
[A] 101

[Q] What growth value was documented for this compound, `O=C1Nc2ccccc2/C1=C\c1c(-c2ccc(F)cc2)nc2ccccn12` ?
[A] 102

###

Test system: MDA-MB-435 melanoma
assayOverview: NCI-60 one-dose screen, 48 h
conditionNotes: 10 µM unless noted
This is part of a sample that, as a whole, favours compounds with a hit. Of some 83,000 tested, about 20% had one in any assay. Calls of active or inactive are those of the source. Rule for the calls: active = growth percent below 10; inactive = the rest.
Lab note: assign the record to one of 1 for active, -1 for inactive

The examples below pair each entry with its known result.
O=C1Nc2cc(-c3cccc([N+](=O)[O-])c3)ccc2/C1=C/c1ccc[nH]1: -1
CC(=O)Nc1ccc(-c2ccc3c(c2)NC(=O)/C3=C\c2ccc[nH]2)cc1: -1

[Q] Call for entry `CCOC(=O)Nc1ccc(-c2ccc3c(c2)NC(=O)/C3=C\c2ccc[nH]2)cc1` :
[A] -1

[Q] Call for entry `NNC(=O)c1ccc(-n2nc(-c3ccccc3)c3ccccc32)cc1` :
[A] -1

[Q] Call for entry `O=[N+]([O-])c1cc(Br)c2cccc3c2c1CC3` :
[A] -1

[Q] Call for entry C=C1C(=O)O[C@H]2[C@H]1CC/C(COC(=O)NCC(C)c1ccc(CC(C)C)cc1)=C\CC[C@@]1(C)O[C@@H]21 (some centres undefined) :
[A] 1

[Q] Call for entry `COc1ccc2c(c1)oc1c(C)c3c(c(C)c12)C(=O)N(N)C3=O` :
[A] -1

[Q] Call for entry `Cc1cnc(C(=O)Nc2nc3ccc(S(=O)(=O)Nc4ccc(C5(C(F)(F)F)CC5)cc4)cc3[nH]2)cn1` :
[A] 1

[Q] Call for entry `COc1ccc(C(=O)c2nc3ccccc3n2CC(=O)c2ccc(Cl)cc2)cc1` :
[A] 1

###

Tested on: LOX IMVI melanoma
assayOverview: NCI-60 one-dose screen, 48 h
conditionNotes: 10 µM unless noted
The panel holds about 83,000 compounds, 20% with a hit somewhere; the sample as a whole holds those more often. Activity calls are given as the source filed them. Rule for the calls: active = growth percent below 10; inactive = the rest.
Lab note: assign the record to one of True for active, False for inactive

The examples below pair each entry with its known result.
Nc1nc(Nc2ccccc2SSc2ccccc2Nc2nc(N)nc(-c3cccs3)n2)nc(-c2ccsc2)n1: False
O=C(Nc1ccccc1C(=O)N/N=C(\c1ccccc1)c1ccccn1)c1ccc(F)cc1: True
Fc1ccc2c(-c3cncn3CCc3ccccc3)c[nH]c2c1: False
CSc1nc2sc3cccc(Cl)c3n2c(=N)c1C#N: False
Cc1cccc(NC(=O)Nc2ccc(-n3cnc4cc(-c5ccc(O)cc5)ccc43)cc2)c1: False
Cc1c(C(=O)NCCC(=O)NO)sc2ncnc(Nc3ccc(F)c(Cl)c3)c12: False
COc1ccc(N2CCN(c3ccc(NC4=C(Cl)C(=O)c5ncccc5C4=O)cc3)CC2)cc1: False
CCOC(=O)c1cc(C(=O)c2ccc(OC)c(OC)c2)n2c1ccc1ccccc12: False
Cc1ccc(-c2[nH][nH]c(=O)c2-c2nc3ccccc3s2)cc1: False

Field: next compound
[Q] Call for entry O=[N+]([O-])CC(c1ccccc1)c1c[nH]c2ccccc12 (stereo not given) :
[A] False

###

System: ACHN renal
assayOverview: NCI-60 one-dose screen, 48 h
conditionNotes: 10 µM unless noted
Description: Growth inhibition of the ACHN human tumor cell line is measured as a screen for anti-cancer activity. Cells are grown in 96 well plates and exposed to the test compound for 48 hours. Compounds are tested at a single concentration, which is 10^-5 M for most compounds. The reported endpoint is percent growth (GI% or GIPRCNT), where numbers from 0 - 100% represent growth inhibition, and numbers from -100% - 0 represent cell death. For example, a value of 40 represents 60% growth inhibition. […]
This is part of a sample that, as a whole, favours compounds with a hit. Of some 83,000 tested, about 20% had one in any assay. The source made the active and inactive calls. How the source made its calls: active means growth percent below 10; inactive means the rest.
Lab note: assign the record to one of y for active, n for inactive

The examples below pair each entry with its known result.
NCCCCCCNc1cc(-c2cccc(OC(F)(F)F)c2)nc2ccc(N3CCCC3)cc12: y
COc1cc2c(=O)n(CCN(C)C)c3c4cc5c(cc4ccc3c2cc1OC)OCO5: y
CNC(=O)c1cccc(Cn2nc(C)c(NC(=O)c3ccc(COc4ccc(C(F)(F)F)cc4C)cc3)c2C)n1: n

[Q] Call for entry `O=C(CCN1CCCC1)Nc1ccc2c(NCCCCc3ccccc3)c3ccccc3nc2c1` :
[A] n

[Q] Call for entry `O=C(CCN1CCCC1)Nc1ccc2c(Nc3ccc(Br)cc3)c3ccccc3nc2c1` :
[A] n

[Q] Call for entry OC(c1cccc(C(F)(F)F)c1)c1cnccc1NC1CCCCC1 (stereo not given) :
[A] n

[Q] Call for entry `NC(=NCCCOc1ccc(F)cc1)Nc1ccc(I)cc1` :
[A] n

[Q] Call for entry `N#C/C(=C\c1cccc(C#N)c1)c1ccccc1` :
[A] n

[Q] Call for entry `COc1ccc(NC(=O)c2cc(NCc3cc(O)ccc3O)ccc2O)cc1` :
[A] n

[Q] Call for entry `CCCCCN1C=C/C(=C\C(=O)N(C)c2ccccc2Br)c2ccccc21` :
[A] n
